Quantity: logP

> print(dat)
                               smiles.entry  measured.result
1  Clc1cc(Cl)c(-c2c(Cl)cc(Cl)c(Cl)c2Cl)cc1Cl             7.05
2  Clc1cc(Cl)c(Cl)c(-c2c(Cl)cc(Cl)c(Cl)c2Cl)c1             6.92
3           Clc1cccc(-c2cc(Cl)c(Cl)cc2Cl)c1             6.32

* * *

Quantity: logP

> print(dat)
                                smiles.entry  measured.result
 1               Clc1ccc(-c2ccccc2)c(Cl)c1Cl             5.68
 2           Clc1ccc(-c2c(Cl)cc(Cl)cc2Cl)cc1             6.03
 3  Clc1ccc(Cl)c(-c2c(Cl)c(Cl)c(Cl)c(Cl)c2Cl)c1Cl             7.21
 4  Clc1cc(Cl)c(Cl)c(-c2cc(Cl)c(Cl)c(Cl)c2Cl)c1             7.21
 5  Clc1ccc(-c2c(Cl)c(Cl)c(Cl)c(Cl)c2Cl)c(Cl)c1             7.13
 6  Clc1cc(Cl)c(Cl)c(-c2c(Cl)c(Cl)c(Cl)c(Cl)c2Cl)c1Cl             7.77
 7               Clc1ccc(-c2c(Cl)cccc2Cl)cc1             5.24
 8  Clc1ccc(-c2c(Cl)c(Cl)c(Cl)c(Cl)c2Cl)c(Cl)c1Cl             7.35
 9  Clc1cc(Cl)c(Cl)c(-c2c(Cl)c(Cl)cc(Cl)c2Cl)c1             6.85
10  Clc1cc(-c2c(Cl)cc(Cl)c(Cl)c2Cl)cc(Cl)c1Cl             7.21
11                 Clc1ccc(-c2ccc(Cl)cc2)cc1             5.23
12           Clc1cc(Cl)c(-c2ccccc2Cl)c(Cl)c1             5.75
13       Clc1ccc(-c2cc(Cl)cc(Cl)c2Cl)c(Cl)c1             6.32
14         Clc1ccc(-c2c(Cl)cccc2Cl)c(Cl)c1Cl              5.6

* * *

Quantity: logP

> print(dat)
                               smiles.entry  quantity  measured.result
 1    Clc1ccc(-c2c(Cl)cc(Cl)c(Cl)c2Cl)cc1Cl      logP             6.78
 2        Clc1ccccc1-c1c(Cl)c(Cl)cc(Cl)c1Cl      logP             6.06
 3                Clc1ccccc1-c1c(Cl)cccc1Cl      logP             5.04
 4                Clc1cccc(-c2cccc(Cl)c2)c1      logP             5.27
 5      Clc1ccc(Cl)c(-c2cc(Cl)c(Cl)cc2Cl)c1      logP              6.3
 6      Clc1ccc(-c2cc(Cl)c(Cl)cc2Cl)c(Cl)c1      logP             6.41
 7      Clc1ccc(-c2ccc(Cl)c(Cl)c2Cl)c(Cl)c1      logP             6.18
 8            Clc1cccc(-c2c(Cl)cccc2Cl)c1Cl      logP             4.84
 9      Clc1ccc(-c2c(Cl)cc(Cl)cc2Cl)c(Cl)c1      logP             6.23
10      Clc1cc(Cl)cc(-c2c(Cl)ccc(Cl)c2Cl)c1      logP             6.45
11  Clc1ccc(Cl)c(-c2c(Cl)cc(Cl)c(Cl)c2Cl)c1      logP             6.45
12    Clc1cc(-c2c(Cl)ccc(Cl)c2Cl)cc(Cl)c1Cl      logP             6.63
